IC50 values, listed per item
target: recombinant human MGAT2 (Homo sapiens (Human), UniProt Q3SYC2); assay: Measurement of human MGAT2 inhibitory activity; assay type: biochemical; conditions: read-out: IC50 (concentration exhibiting 50% enzyme inhibition), Table 53
Sequence (Q3SYC2 whole entry): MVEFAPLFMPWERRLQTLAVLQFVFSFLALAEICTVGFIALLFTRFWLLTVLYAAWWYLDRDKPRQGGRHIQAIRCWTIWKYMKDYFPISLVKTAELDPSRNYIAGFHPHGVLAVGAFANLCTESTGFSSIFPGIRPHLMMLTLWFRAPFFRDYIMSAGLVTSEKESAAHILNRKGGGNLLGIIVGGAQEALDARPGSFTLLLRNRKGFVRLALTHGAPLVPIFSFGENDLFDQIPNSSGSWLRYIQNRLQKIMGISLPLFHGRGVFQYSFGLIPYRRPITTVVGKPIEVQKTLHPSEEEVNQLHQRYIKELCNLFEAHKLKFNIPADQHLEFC
Number in µM, nothing else.

A selection of reference data follows.
CS(=O)(=O)CC(=O)Nc1c2c(nn1CCC1CC1)C[C@@]1(CCc3cc(OCCOCC(F)F)ccc31)NC2=O	0.00959
CS(=O)(=O)CC(=O)Nc1c2c(nn1CCC1CC1)C[C@@]1(CCc3cc(N4CC5(COC5)C4)ccc31)NC2=O	0.2
CS(=O)(=O)CC(=O)Nc1c2c(nn1CCC1CC1)C[C@]1(CCc3c1ccc(N1CC(F)(F)C1)c3F)NC2=O	0.014

// field: IC50; key: `CS(=O)(=O)CC(=O)Nc1c2c(nn1-c1ccc(C#N)cn1)C[C@](c1ccc(OCC(F)(F)F)cc1)(C(F)(F)F)NC2=O` ; value = 0.038
